Below is a list of entries, each paired with its recorded pIC50 value.
TESTED SYSTEM: Pantothenate synthetase (Mycobacterium tuberculosis (strain ATCC 25618 / H37Rv)) (UniProt P9WIL5)
Sequence (P9WIL5 whole entry, looked up): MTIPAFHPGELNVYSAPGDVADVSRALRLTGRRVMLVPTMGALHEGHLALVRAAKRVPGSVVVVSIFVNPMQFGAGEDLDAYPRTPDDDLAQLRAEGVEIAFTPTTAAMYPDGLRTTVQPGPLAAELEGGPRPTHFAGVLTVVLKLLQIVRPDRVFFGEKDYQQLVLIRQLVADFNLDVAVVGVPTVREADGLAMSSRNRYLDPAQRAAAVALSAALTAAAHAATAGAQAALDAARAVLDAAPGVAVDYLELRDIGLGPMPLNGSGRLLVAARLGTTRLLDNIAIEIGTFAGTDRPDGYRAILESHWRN
ASSAY INFO: Biochemical confirmation of M. tuberculosis pantothenate synthetase inhibitors (AID 838)
CONDITION LABEL: M. tuberculosis pantothenate synthetase enzyme inhibition
pIC50: −log10 of the molar value.
RECORDED ENDPOINT: pIC50

MOLECULE	NUMERIC READOUT
O=C(Nc1cnn(Cc2ccc(F)cc2)c1)c1noc2ccc(-c3ccccc3)cc12	3.97
Cc1ccccc1Cn1cc(NC(=O)c2noc3c2CC(C(C)(C)C)CC3)cn1 (configuration not stated)	6.82
CC(C)(C)C1CCc2onc(C(=O)Nc3cnn(Cc4ccccc4I)c3)c2C1 (configuration not stated)	6.98
CC(C)(C)C1CCc2onc(C(=O)Nc3cnn(Cc4cccc(I)c4)c3)c2C1 (configuration not stated)	7.00
COc1ccc(-c2cc(C(=O)Nc3cnn(Cc4ccccc4C)c3)no2)cc1	4.32
CC(C)(C)C1CCc2onc(C(=O)Nc3cnn(Cc4ccc(I)cc4)c3)c2C1 (configuration not stated)	7.17
CC(C)(C)C1CCc2onc(C(=O)Nc3cnn(Cc4ccccc4C(F)(F)F)c3)c2C1 (configuration not stated)	6.56
CC(C)(C)c1ccc2onc(C(=O)Nc3cnn(Cc4cccc(F)c4)c3)c2c1	6.19
CC(C)(C)C1CCc2onc(C(=O)Nc3cnn(Cc4ccc(F)cc4F)c3)c2C1 (configuration not stated)	6.89
CC(C)(C)c1ccc2onc(C(=O)Nc3cnn(Cc4ccc(I)cc4)c3)c2c1	4.44
CC(C)(C)c1ccc2onc(C(=O)Nc3cnn(Cc4ccc(F)cc4)c3)c2c1	6.45
CC(C)(C)C1CCc2onc(C(=O)Nc3cnn(Cc4ccc(Cl)cc4Cl)c3)c2C1 (configuration not stated)	6.95
